The values you see were collected from ChEMBL document CHEMBL1142862.

tested_on: Glutamate receptor ionotropic, NMDA 2B (Rattus norvegicus)
Sequence (Q00960 whole entry): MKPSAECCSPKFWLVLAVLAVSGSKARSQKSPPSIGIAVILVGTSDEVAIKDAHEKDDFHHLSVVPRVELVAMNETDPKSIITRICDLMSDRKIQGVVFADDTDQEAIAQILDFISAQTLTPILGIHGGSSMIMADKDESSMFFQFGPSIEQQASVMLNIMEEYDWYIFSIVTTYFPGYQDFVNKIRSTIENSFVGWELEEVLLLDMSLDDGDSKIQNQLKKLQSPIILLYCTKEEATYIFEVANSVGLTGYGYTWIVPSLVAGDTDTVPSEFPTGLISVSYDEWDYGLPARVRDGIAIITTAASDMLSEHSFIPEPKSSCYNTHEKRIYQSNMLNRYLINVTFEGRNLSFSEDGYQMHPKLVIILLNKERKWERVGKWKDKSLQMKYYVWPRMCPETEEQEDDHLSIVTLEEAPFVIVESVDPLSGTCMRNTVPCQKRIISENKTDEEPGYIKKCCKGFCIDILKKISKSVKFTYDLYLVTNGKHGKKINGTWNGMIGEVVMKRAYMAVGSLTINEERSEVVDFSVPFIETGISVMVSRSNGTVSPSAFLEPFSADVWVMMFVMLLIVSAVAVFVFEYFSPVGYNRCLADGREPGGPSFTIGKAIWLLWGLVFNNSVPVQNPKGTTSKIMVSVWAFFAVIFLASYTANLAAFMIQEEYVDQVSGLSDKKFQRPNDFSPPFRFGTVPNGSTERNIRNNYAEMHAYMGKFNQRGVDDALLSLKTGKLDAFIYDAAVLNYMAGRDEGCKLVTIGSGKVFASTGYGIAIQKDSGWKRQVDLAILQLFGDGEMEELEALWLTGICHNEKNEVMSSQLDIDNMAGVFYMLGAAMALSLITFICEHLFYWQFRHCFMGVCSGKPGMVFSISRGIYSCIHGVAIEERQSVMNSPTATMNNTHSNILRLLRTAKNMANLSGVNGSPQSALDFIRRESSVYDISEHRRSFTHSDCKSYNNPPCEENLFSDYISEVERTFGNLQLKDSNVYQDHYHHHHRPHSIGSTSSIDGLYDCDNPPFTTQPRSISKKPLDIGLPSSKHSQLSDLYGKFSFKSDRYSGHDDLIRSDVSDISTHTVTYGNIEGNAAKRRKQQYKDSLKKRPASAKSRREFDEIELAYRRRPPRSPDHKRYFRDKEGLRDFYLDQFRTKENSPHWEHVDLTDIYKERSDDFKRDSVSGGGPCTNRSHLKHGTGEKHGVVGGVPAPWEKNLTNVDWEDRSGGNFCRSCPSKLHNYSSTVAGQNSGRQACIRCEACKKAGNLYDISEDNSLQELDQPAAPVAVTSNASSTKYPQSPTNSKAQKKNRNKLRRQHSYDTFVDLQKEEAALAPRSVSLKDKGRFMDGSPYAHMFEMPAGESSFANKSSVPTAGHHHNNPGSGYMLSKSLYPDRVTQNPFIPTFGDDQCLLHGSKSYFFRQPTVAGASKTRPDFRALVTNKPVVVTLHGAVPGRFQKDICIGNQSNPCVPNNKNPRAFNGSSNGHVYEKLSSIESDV
protocol_details: Antagonist activity at NR2B NMDA receptor in Wistar rat neocortical cells assessed as inhibition of NMDA-evoked elevation of intracellular calcium concentration
Assay type: functional, cell-based
parameter_measured: pIC50
Would you please state pIC50, meaning minus log10 of the concentration in mol/L, as a bare number?

Nc1ccc2[nH]c(C(=O)N3CCC(Cc4ccccc4)CC3)nc2c1 = 7.40

Field: next molecule
Please indicate pIC50 recorded for O=C(c1cc2c(NCc3ccccc3)cccc2[nH]1)N1CCC(Cc2ccccc2)CC1 7.33
